test system: MKL-1; assay: cell viability relative to DMSO control; higher = less growth inhibition; conditions: log10 concentration (M): -7; treatment time: 6 days
ASSAY METRIC: cell viability (%)
Could you give me the number in %? Just the number is fine.

Before answering, review these 5 worked examples.
INSERT INTO assay_data (molecule, uom, measured_value) VALUES
  ('CCOC(=O)NCCCC(=O)NCCc1ccccc1 [Santacruzamate A]', '%', 104),
  ('c1ccc([C@@H]2C[C@H]2NC2CCNCC2)cc1', '%', 60.1),
  ('Cc1cc2c(cc1N1C(=O)c3cccc4c(CCCO)ccc(c34)C1=O)n(C)c(=O)n2C', '%', 102),
  ('Nc1ccccc1NC(=O)c1ccc(CNC(=O)OCc2cccnc2)cc1', '%', 75),
  ('Cc1sc2c(c1C)C(c1ccc(Cl)cc1)=N[C@@H](CC(=O)OC(C)(C)C)c1nnc(C)n1-2 [(+)-JQ1]', '%', 20.7);

Field request: cell viability | item: O=C(NC[C@H](O)CN1CCc2ccccc2C1)c1ccnc(NC2CCC2)c1
79.2

Query (molecule): CN1CCN(c2ccc(-c3cccc(CN4CCOCC4)c3)cc2NC(=O)c2c[nH]c(=O)cc2C(F)(F)F)CC1 ; field requested: cell viability
87.1

Looking for the measured cell viability of N[C@H]1CC[C@H](N[C@@H]2C[C@H]2c2ccccc2)CC1 , can you help?
46.4

---

// reported growth inhibition for each item listed
test system: MKL-1; experiment: growth inhibition relative to DMSO control (fraction); higher = stronger growth inhibition; settings: GSK-LSD1 concentration 100 nM; partner concentration 10000 nM; treatment time: 6 days
In your answer, state the number alone without any accompanying words.

Field: example entries. Status: answers known.
INSERT INTO results (compound, measured_value) VALUES
  ('c1ccc([C@@H]2C[C@H]2NC2CCNCC2)cc1 [GSK-LSD1] + CN1CCN(c2ccc(-c3cccc(CN4CCOCC4)c3)cc2NC(=O)c2c[nH]c(=O)cc2C(F)(F)F)CC1 [OICR9429]', 0.797),
  ('c1ccc([C@@H]2C[C@H]2NC2CCNCC2)cc1 [GSK-LSD1] + Cc1sc2c(c1C)C(c1ccc(Cl)cc1)=N[C@@H](CC(=O)OC(C)(C)C)c1nnc(C)n1-2 [(+)-JQ1]', 1),
  ('c1ccc([C@@H]2C[C@H]2NC2CCNCC2)cc1 [GSK-LSD1] + Cc1cc2c(cc1N1C(=O)c3cccc4c(CCCO)ccc(c34)C1=O)n(C)c(=O)n2C [BAY299]', 1),
  ('c1ccc([C@@H]2C[C@H]2NC2CCNCC2)cc1 [GSK-LSD1] + Nc1ccccc1NC(=O)c1ccc(CNC(=O)OCc2cccnc2)cc1 [Entinostat]', 1),
  ('c1ccc([C@@H]2C[C@H]2NC2CCNCC2)cc1 [GSK-LSD1] + O=C(NC[C@H](O)CN1CCc2ccccc2C1)c1ccnc(NC2CCC2)c1 [GSK591]', 0.849);

# growth inhibition lookup, item c1ccc([C@@H]2C[C@H]2NC2CCNCC2)cc1 [GSK-LSD1] + CCOC(=O)NCCCC(=O)NCCc1ccccc1 [Santacruzamate A]
0.755

---

cell viability: recorded values
system: PeTa; assay: cell viability relative to DMSO control; higher = less growth inhibition; settings: log10 concentration (M): -11; treatment time: 6 days
Quick reminder: number only, in %, skip the unit.

Illustrative cases are given below, each with its answer.
INSERT INTO assay_data (molecule, uom, measured_value) VALUES
  ('Cc1sc2c(c1C)C(c1ccc(Cl)cc1)=N[C@@H](CC(=O)OC(C)(C)C)c1nnc(C)n1-2 [(+)-JQ1]', '%', 100),
  ('Cc1cc2c(cc1N1C(=O)c3cccc4c(CCCO)ccc(c34)C1=O)n(C)c(=O)n2C [BAY299]', '%', 95.8);

Shift focus to the following entry.
What value of cell viability has been recorded for this entry: O=C(NC[C@H](O)CN1CCc2ccccc2C1)c1ccnc(NC2CCC2)c1 [GSK591]
100

Values compiled from the supplement of paper PMC7645387.
